System: IL-2 secretion by human effector memory T cells (TEM)
Assay: Effector memory T cells IL-2 release assay
Format: cell-based
Conditions: T-cell; human CD4+ effector memory T cells, CD3/CD28 bead stimulation, 24 h; read-out: CD4TC IL2 IC50
Where a name gives a salt, the structure may show the parent alone.
READOUT TYPE: IC50 (nM)

MOLECULE | READOUT TYPE | DATA VALUE
CC1CCN(c2ccc([C@H](N(C)C(=O)[C@H]3CC[S@](=N)(=O)CC3)C(F)(F)F)cc2)c2cnc3cc(Cl)nn3c21 (stereo partly drawn) | IC50 | 61
CN(C(=O)[C@H]1C[C@@H]([S@@+](C)(=N)[O-])C1)[C@@H](c1ccc(N2CCCc3c2cnc2cc(Cl)nn32)cc1)C(F)(F)F | IC50 | 172
CN(C(=O)[C@H]1CC[S@](=N)(=O)CC1)[C@@H](c1ccc(N2CCC(C)(C)c3c2cnc2cc(Cl)nn32)cc1)C(F)(F)F (relative stereo) | IC50 | 51
CN(C(=O)[C@@H]1CS(=O)(=O)CC12COC2)[C@@H](c1ccc(N2CCCc3c2cnc2cc(Cl)nn32)cc1)C(F)(F)F | IC50 | 340
CN(C(=O)C1CCS(=O)(=O)CC1)[C@@H](c1ccc(N2CCCc3c2cnc2cc(Cl)nn32)nc1)C(F)(F)F | IC50 | 452
CN(C(=O)C1CCS(=O)(=O)C1)[C@@H](c1ccc(N2CCCc3c2cnc2cc(Cl)nn32)cc1)C(F)(F)F (stereo partly drawn) | IC50 | 85
CN(C(=O)[C@H]1CC[S@](=N)(=O)CC1)[C@@H](c1ccc(N2CCC(C)(C)c3c2cnc2cc(F)nn32)cc1)C(F)(F)F (relative stereo) | IC50 | 114
CN(C(=O)[C@H]1C[C@H]([S@+](C)(=N)[O-])C1)[C@@H](c1ccc(N2CCCc3c2cnc2cc(Cl)nn32)cc1)C(F)(F)F | IC50 | 105
COc1ccc2ncc(Nc3ccc([C@H](N(C)C(=O)[C@H]4CCC(=O)N4)C(F)(F)F)cc3)c([C@H](C)OC)c2n1 (relative stereo) | IC50 | 29
C[C@H]1CCN(c2ccc([C@H](N(C)C(=O)[C@H]3CC[S@@](=N)(=O)CC3)C(F)(F)F)cc2)c2cnc3cc(F)nn3c21 (relative stereo) | IC50 | 170
CN(C(=O)[C@H]1CC[S@@](=N)(=O)CC1)[C@@H](c1ccc(N2CCC3(CC3)c3c2cnc2cc(F)nn32)cc1)C(F)(F)F (relative stereo) | IC50 | 65
COc1ccc2ncc(Nc3ccc([C@H](N(C)C(=O)[C@@H]4CCC(=O)N4)C(F)(F)F)cc3)c([C@H](C)OC)c2n1 (relative stereo) | IC50 | 35
COC[C@]1(C)CCN(c2ccc([C@H](N(C)C(=O)C3CCS(=O)(=O)CC3)C(F)(F)F)cc2)c2cnc3cc(Cl)nn3c21 | IC50 | 192
CN(C(=O)[C@H]1CC[S@@](=N)(=O)CC1)[C@@H](c1ccc(N2CCC(C)(C)c3c2cnc2cc(F)nn32)cc1)C(F)(F)F (relative stereo) | IC50 | 95
CN(C(=O)[C@@H]1CCC(=O)NC1)[C@@H](c1ccc(N2CCCc3c2cnc2cc(Cl)nn32)cc1)C(F)(F)F (relative stereo) | IC50 | 131
CNCC(=O)N1CC[C@H](C(=O)N(C)[C@@H](c2ccc(N3CCCc4c3cnc3cc(Cl)nn43)cc2)C(F)(F)F)C1 (relative stereo) [CPD0075880, hydrochloride] | IC50 | 363
CN(C(=O)CC1CCS(=O)(=O)CC1)[C@@H](c1ccc(N2CCCc3c2cnc2cc(Cl)nn32)cc1)C(F)(F)F | IC50 | 142
Cc1ncsc1C(=O)N(C)[C@@H](c1ccc(N2CCCc3c2cnc2cc(Cl)nn32)cc1)C(F)(F)F | IC50 | 152
COc1ccccc1CC(=O)N(C)[C@@H](c1ccc(N2CCCc3c2cnc2cc(Cl)nn32)cc1)C(F)(F)F | IC50 | 900
COCC1CCN(c2ccc([C@H](N(C)C(=O)C3CCS(=O)(=O)CC3)C(F)(F)F)cc2)c2cnc3cc(Cl)nn3c21 (stereo partly drawn) | IC50 | 143
COC[C@@]1(C)CCN(c2ccc([C@H](N(C)C(=O)[C@H]3CC[S@@+]([O-])CC3)C(F)(F)F)cc2)c2cnc3cc(Cl)nn3c21 (relative stereo) | IC50 | 45
CN(C(=O)C[C@@H]1CCS(=O)(=O)C1)[C@@H](c1ccc(N2CCCc3c2cnc2cc(Cl)nn32)cc1)C(F)(F)F (relative stereo) | IC50 | 187
CN(C(=O)[C@H]1C[C@@H]([S@+](C)(=N)[O-])C1)[C@@H](c1ccc(N2CCCc3c2cnc2cc(Cl)nn32)cc1)C(F)(F)F | IC50 | 181
CN(C(=O)C1CCCO1)[C@@H](c1ccc(N2CCCc3c2cnc2cc(Cl)nn32)cc1)C(F)(F)F (stereo partly drawn) | IC50 | 142

###

Tested on: IL-2 secretion by human effector memory T cells (TEM)
Assay: Effector memory T cells IL-2 release assay
Assay type: cell-based
Conditions: T-cell; human CD4+ effector memory T cells, CD3/CD28 bead stimulation, 24 h; read-out: CD4TC IL2 IC50
Parameter: log10 of IC50. Scope: all listed entries.
READOUT TYPE: log10 of IC50 (log10 of the value in nM)

COMPOUND | log10 of IC50
CN(C(=O)C1CCS(=O)(=O)CC1)[C@@H](c1ccc(N2CC(C)(C)Cc3c2cnc2cc(Cl)nn32)cc1)C(F)(F)F | 1.97
CN(C(=O)[C@H]1CCC(=O)N1)[C@@H](c1ccc(N2CCCc3c2cnc2cc(Cl)nn32)cc1)C(F)(F)F (relative stereo) | 2.08
COC[C@@H]1CCN(c2ccc([C@H](N(C)C(=O)C3CCS(=O)(=O)CC3)C(F)(F)F)cc2)c2cnc3cc(Cl)nn3c21 | 2.32
COc1ccc2ncc(Nc3ccc([C@H](N(C)C(=O)[C@H]4CC[S@@+]([O-])CC4)C(F)(F)F)cc3)c([C@H](C)OC)c2n1 (relative stereo) | 1.53
COc1cc2ncc3c(n2n1)CCCN3c1ccc([C@H](N(C)C(=O)C2CCS(=O)(=O)CC2)C(F)(F)F)cc1 | 3.10
COc1ccc2ncc(Nc3ccc([C@H](N(C)C(=O)C4CCS(=O)(=O)CC4)C(F)(F)F)cn3)c(C(C)OC)c2n1 (stereo partly drawn) | 2.06

###

Parameter: IC50. Scope: all listed entries.
System: IL-2 secretion by human effector memory T cells (TEM)
Assay: Effector memory T cells IL-2 release assay
Assay type: cell-based
Conditions: T-cell; human CD4+ effector memory T cells, CD3/CD28 bead stimulation, 24 h; read-out: CD4TC IL2 IC50

COMPOUND | IC50
COC[C@H]1CCN(c2ccc([C@H](N(C)C(=O)C3CCS(=O)(=O)CC3)C(F)(F)F)cc2)c2cnc3cc(Cl)nn3c21 | 0.088 µM
O=C(N[C@@H](c1ccc(N2CCCc3c2cnc2cc(Cl)nn32)cc1)C(F)(F)F)C1CCS(=O)(=O)CC1 | 0.845 µM
CN(C(=O)[C@H]1CS(=O)(=O)CC12COC2)[C@@H](c1ccc(N2CCCc3c2cnc2cc(Cl)nn32)cc1)C(F)(F)F | 0.341 µM
CC(=O)N1CC[C@H](C(=O)N(C)[C@@H](c2ccc(N3CCCc4c3cnc3cc(Cl)nn43)cc2)C(F)(F)F)C1 (relative stereo) | 0.16 µM
CN(C(=O)[C@H]1CC12CCS(=O)(=O)CC2)[C@@H](c1ccc(N2CCCc3c2cnc2cc(Cl)nn32)cc1)C(F)(F)F (relative stereo) | 0.994 µM
CN(C(=O)[C@H]1CC[S@@](=N)(=O)CC1)[C@@H](c1ccc(N2CC(C)(C)Cc3c2cnc2cc(Cl)nn32)cc1)C(F)(F)F | 0.163 µM
CC1CCN(c2ccc([C@H](N(C)C(=O)C3CCS(=O)(=O)CC3)C(F)(F)F)cc2)c2cnc3cc(Cl)nn3c21 (single isomer, unassigned) | 0.082 µM
CN(C(=O)CN1CCCS1(=O)=O)[C@@H](c1ccc(N2CCCc3c2cnc2cc(Cl)nn32)cc1)C(F)(F)F | 0.286 µM
COc1ccc2ccc(Nc3ccc([C@H](N(C)C(=O)C4CCS(=O)(=O)CC4)C(F)(F)F)cc3)cc2n1 | 0.108 µM
CN([C@@H](c1ccc(N2CCCc3c2cnc2cc(Cl)nn32)cc1)C(F)(F)F)S(C)(=O)=O | 0.538 µM
CN([C@@H](c1ccc(N2CCCc3c2cnc2cc(Cl)nn32)cc1)C(F)(F)F)[S+]([O-])C(C)(C)C (some centres unmarked) | 1.47 µM
CN(C(=O)C1CCN(C(=O)CO)CC1)[C@@H](c1ccc(N2CCCc3c2cnc2cc(Cl)nn32)cc1)C(F)(F)F | 0.101 µM
Cc1scnc1C(=O)N(C)[C@@H](c1ccc(N2CCCc3c2cnc2cc(Cl)nn32)cc1)C(F)(F)F | 0.271 µM
COc1ccc2ncc(Nc3ccc([C@H](N(C)C(=O)[C@@H]4CCN(C(=O)CO)C4)C(F)(F)F)cc3)c([C@H](C)OC)c2n1 (relative stereo) | 0.047 µM
COc1ccc2ncc(Nc3ccc([C@H](N(C)C(=O)C4CCS(=O)(=O)CC4)C(F)(F)F)cc3)c([C@H]3CCOC3)c2n1 | 0.034 µM
O=C(Nc1cnc(-n2nccn2)c(Cl)c1)c1cnn(-c2cccc3ncccc23)c1NCCCCl | 10 µM
COc1ccc2ncc(Nc3ccc([C@H](N(C)C(=O)C4CCS(=O)(=O)CC4)C(F)(F)F)cc3)c([C@H](C)OC)c2n1 (relative stereo) | 0.02 µM
CN(C(=O)[C@H]1CC[S@](=N)(=O)CC1)[C@@H](c1ccc(N2CC(C)(C)Cc3c2cnc2cc(Cl)nn32)cc1)C(F)(F)F | 0.183 µM
CN(C(=O)[C@H]1CC[S@+]([O-])CC1)[C@@H](c1ccc(N2CCC3(CC3)c3c2cnc2cc(F)nn32)cc1)C(F)(F)F (relative stereo) | 0.058 µM
CN(C(=O)[C@H]1CC[S@](=N)(=O)CC1)[C@@H](c1ccc(N2CCCc3c2cnc2cc(Cl)nn32)cc1)C(F)(F)F (relative stereo) | 0.094 µM
C[C@H]1CCN(c2ccc([C@H](N(C)C(=O)[C@H]3CC[S@](=N)(=O)CC3)C(F)(F)F)cc2)c2cnc3cc(F)nn3c21 (relative stereo) | 0.162 µM
CN(C(=O)[C@H]1CCN(S(C)(=O)=O)C1)[C@@H](c1ccc(N2CCCc3c2cnc2cc(Cl)nn32)cc1)C(F)(F)F (relative stereo) | 0.107 µM
CN(C(=O)CN1CCOCC1)[C@@H](c1ccc(N2CCCc3c2cnc2cc(Cl)nn32)cc1)C(F)(F)F | 0.315 µM
